SYSTEM_UNDER_TEST: T1, human PD-L1 expressed on CHO-K1 cells (Genscript, Cat #M00543) (human, UniProt Q9NZQ7 19-290)
T1 construct: also called PD-L1 cell line
TEST_NAME: FACS, CHO-K1/human PD-L1 cells
Protocol: PD-L1 stable cell line binding activity assessment of 12 mouse mAbs was carried out using FACS. […] Cells were washed again with FACS buffer and analyzed by FACSCalibur (BD Bioscience, San Jose, Calif.) and Flowjo software. Data were analyzed with Prism 6 (GraphPad Software, San Diego, Calif.) using non-linear regression, and EC₅₀ values were calculated (FIGS. 2A-2L and Table 3). […]
MEASURED_ATTRIBUTE: EC50 (nM)
Answers are plain numbers, in nM.

QUERY: Could you tell me which EC50 is on file for 29A8_chimeric (antibody, human IgG1, kappa, N297A, V domains shown, Human IgG1 with effector-less Fc mutations, human kappa; also called chimeric 29A8H8C7) VH: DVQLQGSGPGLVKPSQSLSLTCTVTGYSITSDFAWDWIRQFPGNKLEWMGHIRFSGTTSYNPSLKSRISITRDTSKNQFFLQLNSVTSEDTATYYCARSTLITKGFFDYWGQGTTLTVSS VL: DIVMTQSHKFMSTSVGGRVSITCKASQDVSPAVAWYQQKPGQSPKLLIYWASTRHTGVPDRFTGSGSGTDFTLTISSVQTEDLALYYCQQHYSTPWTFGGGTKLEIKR ?
RESULT: 1.08
